Listed next: entries and their corresponding TGI.
Tested on: T-47D breast
testName: NCI tumour cell line growth inhibition, 48 h
readout: TGI

[[record]]
compound = "CC1SC(c2cccs2)N(NC(=O)C(O)c2ccccc2)C1=O (stereo not given)"
recordedresult = "> 100 µM"

[[record]]
compound = "Cc1c2c(nn1-c1ccc(S/N=C3\\SCC(=O)CN3c3ccccc3)cc1)-c1ccccc1CC2"
recordedresult = "> 50 µM"

[[record]]
compound = "COc1ccc(/C=C(/C(=O)N2CCNCC2)c2cc(OC)c(OC)c(OC)c2)cc1O"
recordedresult = "> 100 µM"

[[record]]
compound = "Cn1c(=O)c(Cc2ccc(F)cc2F)cc2cnc(NC3CCOCC3)nc21"
recordedresult = "> 25 µM"

[[record]]
compound = "N#Cc1c2ccccc2c2nnc3cc(Cl)c(Cl)cc3n12"
recordedresult = "> 100 µM"

[[record]]
compound = "CCCCN(CCCC)CC(=O)c1ccc2cc(Cl)c3ccccc3c2c1"
recordedresult = "76.6 µM"

[[record]]
compound = "CCOc1ccc(N=NC2C(=O)N(C(=O)CC(=O)Nc3ccc(Cl)cc3)N=C2C)cc1 (stereo not given)"
recordedresult = "> 100 µM"

[[record]]
compound = "O=Cc1ccc(C(F)(F)F)cc1.[C-]#[O+].[C-]#[O+].[C-]#[O+].[Cr]"
recordedresult = "62.4 µM"

[[record]]
compound = "COC(=O)c1ccc(/C=C/C2=CC(=O)C=CC2=O)cc1"
recordedresult = "33.5 µM"

[[record]]
compound = "COc1ccccc1NC(=S)N/N=C(/c1ccccc1)c1ccccn1"
recordedresult = "27.2 µM"

[[record]]
compound = "O=c1c2ccccc2nc(-c2ccc(Cl)cc2)n1O"
recordedresult = "> 100 µM"

[[record]]
compound = "CC(C)(C)[Si](C)(C)OCC1OC(n2ccc(=O)[nH]c2=O)C(O[Si](C)(C)C(C)(C)C)/C1=N/O (stereo not given)"
recordedresult = "24.2 µM"

[[record]]
compound = "O=C(/C=N/O)c1c(-c2ccccc2)[nH]c(-c2ccccc2)c1-c1ccccc1"
recordedresult = "> 100 µM"

[[record]]
compound = "CCCCc1ccc(N2C(=O)c3cc(C)cnc3S2(=O)=O)cc1"
recordedresult = "> 100 µM"

[[record]]
compound = "CC(C)(C)c1ccc(-c2nnc(SCc3ccc(Cl)cc3)n2-c2cccc(C(F)(F)F)c2)cc1"
recordedresult = "> 100 µM"

[[record]]
compound = "Brc1ccc(-c2ccc(-c3ccc(Br)s3)s2)s1"
recordedresult = "> 100 µM"

[[record]]
compound = "COc1ccc(-n2c(N)c(C(=O)NCCN3CCOCC3)c3nc4ccccc4nc32)cc1OC"
recordedresult = "> 100 µM"

[[record]]
compound = "CCC1OC2C(CC=C(C)C)=C3OC(C)(O)C(C)(CC)C(O)C3=C3OC(=O)C=C1C32 (stereo not given)"
recordedresult = "> 100 µM"

[[record]]
compound = "CCOC(=O)c1c(NC(=S)NCc2ccccc2)sc2c1CCN(C)C2"
recordedresult = "> 100 µM"

[[record]]
compound = "CC1=C(C)C(=O)C(C(C)C2=C(C)C(=O)C(C)=C(C)C2=O)=C(C)C1=O"
recordedresult = "26.4 µM"


* * *

Tested on: MCF7 breast
testName: NCI tumour cell line growth inhibition, 48 h
readout: TGI

[[record]]
molecule = "Fc1ccc(Nc2nc(Nc3ccc(-c4nc5ccccc5[nH]4)cc3)nc(N3CCCC3)n2)cc1"
readout = "TGI"
recordedresult = "5.22 µM"

[[record]]
molecule = "CCCNc1nc(-c2ccc(OC)cc2)nc2ccccc12"
readout = "TGI"
recordedresult = "> 100 µM"

[[record]]
molecule = "Nc1nc(Cl)cc(NCC2(CO)CC(CCCCc3ccccc3)C2)n1 (stereo unspecified)"
readout = "TGI"
recordedresult = "> 100 µM"

[[record]]
molecule = "Cn1cccc1-c1cc(-c2ccc(Br)cc2)nc(N)c1C#N"
readout = "TGI"
recordedresult = "> 100 µM"

[[record]]
molecule = "CCCCCOP(=O)(OCCCCC)C(NC(C)=O)(C(=O)OCC)C(F)(F)F (stereo unspecified)"
readout = "TGI"
recordedresult = "> 100 µM"

[[record]]
molecule = "COC(=O)CCCc1ccc2c(c1)CCC2"
readout = "TGI"
recordedresult = "> 100 µM"

[[record]]
molecule = "O=C(O)/C(Cl)=C(/Cl)C(=O)Nc1cccc(Cl)c1"
readout = "TGI"
recordedresult = "62.8 µM"

[[record]]
molecule = "Cc1nc2c(=O)[nH]c(=O)nc-2n(CCO)c1C"
readout = "TGI"
recordedresult = "> 100 µM"

[[record]]
molecule = "Cc1c2cc[n+](C)cc2c(COC2OC(CO)C(O)C2O)c2c3ccccc3n(C)c12 (stereo unspecified)"
readout = "TGI"
recordedresult = "> 100 µM"

[[record]]
molecule = "COc1cc(/C=C\\c2ccc(SC)cc2)cc(OC)c1OC"
readout = "TGI"
recordedresult = "> 100 µM"

[[record]]
molecule = "c1ccc(/C(=N/Nc2cnccn2)c2ncccn2)cc1"
readout = "TGI"
recordedresult = "> 100 µM"


* * *

Tested on: UACC-257 melanoma
testName: NCI tumour cell line growth inhibition, 48 h
readout: TGI

[[record]]
compound = "OC1(c2ccc(Cl)cc2)c2ccccc2C2=Nc3ccccc3CN21 (stereo not drawn)"
recordedresult = "> 100 µM"

[[record]]
compound = "C=C1C(=O)O[C@H]2C1C[C@@H](O)[C@@]1(C)OC1CC[C@@]1(C)O[C@H]21 (stereo partly drawn)"
recordedresult = "42.3 µM"

[[record]]
compound = "Cc1cccc(Nc2cn(CCOc3ccccc3)c(=O)[nH]c2=O)c1"
recordedresult = "> 100 µM"

[[record]]
compound = "O=S1(=O)CSc2ccc3ccccc3c2-c2c1ccc1ccccc21"
recordedresult = "> 100 µM"

[[record]]
compound = "COc1ccc(C2CC(c3cc(OC)c(OC)c(OC)c3)=NN2)cc1 (stereo not drawn)"
recordedresult = "> 100 µM"

[[record]]
compound = "COC(=O)/C(C#N)=C1\\N=NNN1CCCc1ccccc1"
recordedresult = "> 100 µM"

[[record]]
compound = "CC(=O)OCCOCNC(=S)N/N=C(\\C)c1ccco1"
recordedresult = "> 100 µM"

[[record]]
compound = "CC(C)(C)[Si](C)(C)OCC1OC(n2ccc(=O)[nH]c2=O)C(O[Si](C)(C)C(C)(C)C)/C1=N/O (stereo not drawn)"
recordedresult = "16.7 µM"

[[record]]
compound = "COc1ccc(/C=C(/C(=O)N2CCNCC2)c2cc(OC)c(OC)c(OC)c2)cc1O"
recordedresult = "> 100 µM"

[[record]]
compound = "COc1ccc(N=NN2CCCC2)cc1"
recordedresult = "> 100 µM"

[[record]]
compound = "CC(=O)C1=CC=C/C1=N\\Nc1ccccc1"
recordedresult = "33.5 µM"

[[record]]
compound = "Cc1[nH]n(C(=O)c2ccccc2O)c(=O)c1/C=C1\\C(=O)C=Cc2ccccc21"
recordedresult = "26.6 µM"

[[record]]
compound = "O=C1c2cccnc2-c2nc(-c3ccc([N+](=O)[O-])cc3)cc3c2c1nc1ccccc13"
recordedresult = "7.32 µM"

[[record]]
compound = "COc1ccc(NS(=O)C2CCCCC2)cc1 (stereo not drawn)"
recordedresult = "> 100 µM"

[[record]]
compound = "Cc1cc(S(N)(=O)=O)c(S/C(=N\\NS(=O)(=O)c2ccc(Cl)cc2)c2ccc(Cl)cc2)cc1Cl"
recordedresult = "> 100 µM"

[[record]]
compound = "Cc1ccc(/C=C(\\C#N)n2nnc3cc(F)c(F)cc32)cc1"
recordedresult = "3.54 µM"

[[record]]
compound = "N#Cc1ccc(Nc2nc3nc[nH]c3c(=O)[nH]2)cc1"
recordedresult = "> 100 µM"

[[record]]
compound = "COc1ccc(OC)c2c1C[C@@H]1C(C#N)N3[C@H](Cc4c(OC)ccc(OC)c4[C@@H]3C)C(=O)N1[C@H]2C (stereo partly drawn)"
recordedresult = "6.96 µM"

[[record]]
compound = "Cc1ccc(/C=C2\\CCOC2=O)cc1"
recordedresult = "> 100 µM"

[[record]]
compound = "N#Cc1nn(-c2ccc(Cl)cc2)c(N)c2c(=N)n3nc(-c4ccccc4)cc3nc12"
recordedresult = "> 100 µM"

[[record]]
compound = "CC(=O)OC(C)(C)C1CCC(C)(C(O)COc2ccc(CCNC(=O)c3ccccc3)cc2)O1 (stereo not drawn)"
recordedresult = "> 100 µM"

[[record]]
compound = "NS(=O)(=O)c1ccc(-n2nc(-c3ccc(Cl)cc3)cc2C2=CC(=O)C=CC2=O)cc1"
recordedresult = "42.9 µM"

[[record]]
compound = "Cc1cc(Cl)ccc1N1C(=O)C(=O)C(c2nc3ccccc3s2)C(=O)C1=O"
recordedresult = "> 100 µM"

[[record]]
compound = "CC1SC(c2cccs2)N(NC(=O)C(O)c2ccccc2)C1=O (stereo not drawn)"
recordedresult = "> 100 µM"

[[record]]
compound = "Cc1c2cc[n+](C)cc2c(COC2OC(CO)C(O)C2O)c2c3ccccc3n(C)c12 (stereo not drawn)"
recordedresult = "> 100 µM"

[[record]]
compound = "CC(O)CN(CCN(CC(C)O)CC(C)O)CC(C)O.O=[N+]([O-])O.[Cu+2] (stereo not drawn)"
recordedresult = "> 100 µM"

[[record]]
compound = "C[Si](C)(C)/C(Br)=C\\CCN1C(=O)CCC1O (stereo not drawn)"
recordedresult = "> 100 µM"

[[record]]
compound = "Oc1ccc2ccccc2c1/C=N\\Nc1ccccn1"
recordedresult = "> 100 µM"

[[record]]
compound = "CC1(c2cccc(C3CCC4(C=CC3=O)OCCO4)c2)OCCO1 (stereo not drawn)"
recordedresult = "21.5 µM"

[[record]]
compound = "COC(=O)c1ccc(/C=C/C2=CC(=O)C=CC2=O)cc1"
recordedresult = "34.8 µM"

[[record]]
compound = "c1ccc(COc2nc3ccc(C45CC6CC(CC(C6)C4)C5)cc3[nH]2)cc1"
recordedresult = "> 26.4 µM"

[[record]]
compound = "CCOC(=O)Nc1ccc(S(=O)(=O)Nc2ccc(Br)cc2)cc1"
recordedresult = "> 100 µM"

[[record]]
compound = "CCOC(=O)/C(O)=C(\\C=N\\C(=S)Nc1ccc(Cl)c(Cl)c1)C(=O)OCC"
recordedresult = "> 100 µM"

[[record]]
compound = "S=C1c2cc(Cl)ccc2NC(=NC2CCCC2)C2CSCN12 (stereo not drawn)"
recordedresult = "> 100 µM"

[[record]]
compound = "Cc1cc2nc3c(C#N)c(-c4ccccc4)/c(=C\\Nc4cccc(C(F)(F)F)c4)c(=O)n3c2cc1C"
recordedresult = "> 100 µM"

[[record]]
compound = "O=Cc1cc(O)c(O)c(O)c1-c1c(C=O)cc(O)c(O)c1O"
recordedresult = "> 100 µM"

[[record]]
compound = "CC1(C(O)c2ccccc2)CN(C(C)(C)C)C(=O)/C1=C\\Sc1ccccc1 (stereo not drawn)"
recordedresult = "95.2 µM"

[[record]]
compound = "CC(C)=NN/C(=N\\S(=O)(=O)c1cc(Cl)c(Oc2ccc([N+](=O)[O-])cc2Cl)c(Cl)c1)Nc1ccc(Cl)cc1"
recordedresult = "> 100 µM"

[[record]]
compound = "COC(=O)C1Cc2c([nH]c3ccccc23)C=N1 (stereo not drawn)"
recordedresult = "> 100 µM"

[[record]]
compound = "O=Nc1c(-c2cccc([N+](=O)[O-])c2)nc2ncccn12"
recordedresult = "26.4 µM"

[[record]]
compound = "Cc1cc2c(=O)cc(-c3ccc(Cl)cc3)oc2c(C(=O)O)c1C"
recordedresult = "> 100 µM"

[[record]]
compound = "OC(Cn1cncn1)(Cn1cncn1)c1ccc(Cl)cc1Cl"
recordedresult = "> 100 µM"

[[record]]
compound = "O=C(O)/C(Cl)=C(/Cl)C(=O)Nc1cccc(Cl)c1"
recordedresult = "47 µM"

